Values compiled from ChEMBL document CHEMBL1141286.

- Test system: HL-60
- Protocol Description: Growth inhibition of human HL60 cells
- Assay type: functional
Measured Metric: LC50 (µM)
Give bare numbers, in µM.

- Chemical Structure: "COc1cc(O)cc2cc3oc(C)cc(=O)c3c(O)c12"
  LC50 [µM]: 83.2

Now turn to the next compound.
Tell me the measured LC50 of CCCc1cc(=O)c2c(OC)c3c(OC)cc(O)c(Oc4c(O)cc(OC)c5c(OC)c6c(=O)cc(CCC)oc6cc45)c3cc2o1 , please.
79.4

###

- Test system: OVCAR-4
- Protocol Description: Growth inhibition of human OVACAR4 cells
- Type: functional
- Assay Context: read-out: Log TGI (converted)
Measured Metric: TGI

Answered cases to consult:
- Chemical Structure: "CCCc1cc(=O)c2c(OC)c3c(OC)cc(O)c(Oc4c(O)cc(OC)c5c(OC)c6c(=O)cc(CCC)oc6cc45)c3cc2o1"
  System Name: "OVCAR-4"
  TGI: "8.51 µM"
- Chemical Structure: "CCCc1cc(=O)c2c(OC)c3c(OC)cc(OC)cc3cc2o1"
  System Name: "OVCAR-4"
  TGI: "> 100 µM"
- Chemical Structure: "CCCc1cc(=O)c2c(O)c3c(OC)cc(O)cc3cc2o1"
  System Name: "OVCAR-4"
  TGI: "> 100 µM"

Batch lookup, TGI per entry.
1. COc1cc(O)cc2cc3oc(C)cc(=O)c3c(OC)c12
2. COc1cc(O)cc2cc3oc(C)cc(=O)c3c(O)c12

["> 100 µM", "> 100 µM"]

###

- System: COLO 205
- Protocol Description: Growth inhibition of human COLO205 cells
- Type: functional
- Assay Context: read-out: Log LC50 (the source's name) (converted)
So I've got a bunch of compounds here, and I need their CC50 values.

- Chemical Structure: "CCCc1cc(=O)c2c(O)c3c(OC)cc(O)cc3cc2o1"
  System Name: "COLO 205"
  Measured Metric: "CC50"
  Result: "> 100 µM"
- Chemical Structure: "COc1cc(O)cc2cc3oc(C)cc(=O)c3c(OC)c12"
  System Name: "COLO 205"
  Measured Metric: "CC50"
  Result: "> 100 µM"
- Chemical Structure: "CCCc1cc(=O)c2c(OC)c3c(OC)cc(OC)cc3cc2o1"
  System Name: "COLO 205"
  Measured Metric: "CC50"
  Result: "> 100 µM"
- Chemical Structure: "CCCc1cc(=O)c2c(OC)c3c(OC)cc(O)c(Oc4c(O)cc(OC)c5c(OC)c6c(=O)cc(CCC)oc6cc45)c3cc2o1"
  System Name: "COLO 205"
  Measured Metric: "CC50"
  Result: "57.5 µM"

Now turn to the next compound.
Tell me the measured CC50 of COc1cc(O)cc2cc3oc(C)cc(=O)c3c(O)c12 , please.
> 100 µM

###

- Protocol Description: Inhibition of luciferase
Measured Metric: IC50
Write your answer as a measured quantity: the number, then the unit.

Tell me the measured IC50 of CCCc1cc(=O)c2c(OC)c3c(OC)cc(O)c(Oc4c(O)cc(OC)c5c(OC)c6c(=O)cc(CCC)oc6cc45)c3cc2o1 , please.
2400 nM

###

- Test system: HL-60
- Protocol Description: Growth inhibition of human HL60 cells
- Type: functional
- Assay Context: read-out: Log TGI (converted)
So I've got a bunch of compounds here, and I need their TGI values.
Numbers only, in µM.

Batch lookup, TGI per entry.
1. CCCc1cc(=O)c2c(OC)c3c(OC)cc(O)c(Oc4c(O)cc(OC)c5c(OC)c6c(=O)cc(CCC)oc6cc45)c3cc2o1
2. COc1cc(O)cc2cc3oc(C)cc(=O)c3c(O)c12

1. 11.2
2. 41.7

Tell me the measured TGI of CCCc1cc(=O)c2c(O)c3c(OC)cc(O)cc3cc2o1 , please.
61.7

###

- Protocol Description: Growth inhibition of human OVACAR3 cells
- Assay type: functional
Measured Metric: GI50 (µM)
Give bare numbers, in µM.

Answered cases to consult:
- Chemical Structure: "CCCc1cc(=O)c2c(OC)c3c(OC)cc(OC)cc3cc2o1"
  GI50 (µM): 38.9
- Chemical Structure: "CCCc1cc(=O)c2c(OC)c3c(OC)cc(O)c(Oc4c(O)cc(OC)c5c(OC)c6c(=O)cc(CCC)oc6cc45)c3cc2o1"
  GI50 (µM): 2.19

Tell me the measured GI50 of CCCc1cc(=O)c2c(O)c3c(OC)cc(O)cc3cc2o1 , please.
27.5

###

- Test system: KM12
- Protocol Description: Growth inhibition of human KM12 cells
- Format: functional
- Assay Context: read-out: Log TGI (converted)
So I've got a bunch of molecules here, and I need their TGI values.
One number for each entry, in µM.

Batch lookup, TGI per entry.
1. COc1cc(O)cc2cc3oc(C)cc(=O)c3c(O)c12
2. CCCc1cc(=O)c2c(OC)c3c(OC)cc(O)c(Oc4c(O)cc(OC)c5c(OC)c6c(=O)cc(CCC)oc6cc45)c3cc2o1
3. CCCc1cc(=O)c2c(O)c3c(OC)cc(O)cc3cc2o1

1: 39.8; 2: 30.9; 3: 39.8

###

So I've got a bunch of compounds here, and I need their GI50 values.
- Test system: NCI-H226
- Protocol Description: Growth inhibition of human NCI-H226 cells
- Format: functional
Numbers only, in µM.

Batch lookup, GI50 per entry.
1. COc1cc(O)cc2cc3oc(C)cc(=O)c3c(O)c12
2. CCCc1cc(=O)c2c(O)c3c(OC)cc(O)cc3cc2o1
3. CCCc1cc(=O)c2c(OC)c3c(OC)cc(O)c(Oc4c(O)cc(OC)c5c(OC)c6c(=O)cc(CCC)oc6cc45)c3cc2o1

[22.4, 17.8, 16.2]

###

- Test system: BT-549
- Protocol Description: Growth inhibition of human BT549 cells
- Format: functional
Measured Metric: GI50 (µM)
Answers are plain numbers, in µM.

Answered cases to consult:
- Chemical Structure: "CCCc1cc(=O)c2c(O)c3c(OC)cc(O)cc3cc2o1"
  Numeric Result: 18.2
- Chemical Structure: "COc1cc(O)cc2cc3oc(C)cc(=O)c3c(OC)c12"
  Numeric Result: 74.1
- Chemical Structure: "COc1cc(O)cc2cc3oc(C)cc(=O)c3c(O)c12"
  Numeric Result: 20.4
- Chemical Structure: "CCCc1cc(=O)c2c(OC)c3c(OC)cc(OC)cc3cc2o1"
  Numeric Result: 66.1

Now turn to the next compound.
Tell me the measured GI50 of CCCc1cc(=O)c2c(OC)c3c(OC)cc(O)c(Oc4c(O)cc(OC)c5c(OC)c6c(=O)cc(CCC)oc6cc45)c3cc2o1 , please.
3.09

###

So I've got a bunch of molecules here, and I need their TGI values.
- Test system: UACC-257
- Protocol Description: Growth inhibition of human UACC257 cells
- Format: functional
- Assay Context: read-out: Log TGI (converted)
Give bare numbers, in µM.

- Chemical Structure: "CCCc1cc(=O)c2c(O)c3c(OC)cc(O)cc3cc2o1"
  TGI, µM: 56.2

Tell me the measured TGI of CCCc1cc(=O)c2c(OC)c3c(OC)cc(O)c(Oc4c(O)cc(OC)c5c(OC)c6c(=O)cc(CCC)oc6cc45)c3cc2o1 , please.
13.8

###

- System: OVCAR-5
- Protocol Description: Growth inhibition of human OVACAR5 cells
- Type: functional
- Assay Context: read-out: Log TGI (converted)
Measured Metric: TGI (µM)
Answers are plain numbers, in µM.

- Chemical Structure: "CCCc1cc(=O)c2c(O)c3c(OC)cc(O)cc3cc2o1"
  TGI / µM: 60.3

Now turn to the next compound.
Tell me the measured TGI of CCCc1cc(=O)c2c(OC)c3c(OC)cc(O)c(Oc4c(O)cc(OC)c5c(OC)c6c(=O)cc(CCC)oc6cc45)c3cc2o1 , please.
30.9

###

- Tested on: NCI-H460
- Protocol Description: Growth inhibition of human NCI-H460 cells
- Format: functional
So I've got a bunch of compounds here, and I need their GI50 values.
Give bare numbers, in µM.

Answered cases to consult:
- Chemical Structure: "CCCc1cc(=O)c2c(OC)c3c(OC)cc(O)c(Oc4c(O)cc(OC)c5c(OC)c6c(=O)cc(CCC)oc6cc45)c3cc2o1"
  Numeric Result: 10.7
- Chemical Structure: "CCCc1cc(=O)c2c(O)c3c(OC)cc(O)cc3cc2o1"
  Numeric Result: 17.8
- Chemical Structure: "COc1cc(O)cc2cc3oc(C)cc(=O)c3c(O)c12"
  Numeric Result: 19.1

Now turn to the next compound.
Tell me the measured GI50 of CCCc1cc(=O)c2c(OC)c3c(OC)cc(OC)cc3cc2o1 , please.
85.1
